Target: RNA-dependent RNA polymerase (RdRp) of bovine virus diarrhea virus (BVDV) (Bovine viral diarrhea virus)
Sequence (P19711 3270-3988): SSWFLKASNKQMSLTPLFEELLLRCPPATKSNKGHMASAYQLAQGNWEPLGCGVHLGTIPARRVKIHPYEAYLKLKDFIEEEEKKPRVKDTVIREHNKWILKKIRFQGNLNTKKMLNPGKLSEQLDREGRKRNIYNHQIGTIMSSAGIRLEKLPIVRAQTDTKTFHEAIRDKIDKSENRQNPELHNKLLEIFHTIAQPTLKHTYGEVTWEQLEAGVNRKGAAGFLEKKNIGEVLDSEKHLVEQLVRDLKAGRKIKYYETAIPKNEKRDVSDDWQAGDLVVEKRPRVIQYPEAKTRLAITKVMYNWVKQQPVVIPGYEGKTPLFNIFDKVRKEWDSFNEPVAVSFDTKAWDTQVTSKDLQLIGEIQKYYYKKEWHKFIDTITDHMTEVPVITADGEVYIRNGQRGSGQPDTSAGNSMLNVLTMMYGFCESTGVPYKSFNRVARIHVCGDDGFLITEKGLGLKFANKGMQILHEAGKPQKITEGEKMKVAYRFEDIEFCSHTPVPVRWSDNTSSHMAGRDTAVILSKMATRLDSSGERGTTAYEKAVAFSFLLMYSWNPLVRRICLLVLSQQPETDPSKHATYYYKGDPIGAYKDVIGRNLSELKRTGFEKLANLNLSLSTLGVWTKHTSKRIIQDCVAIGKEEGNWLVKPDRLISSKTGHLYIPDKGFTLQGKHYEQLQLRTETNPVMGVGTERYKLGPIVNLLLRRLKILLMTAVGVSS
pIC50: −log10 of the molar value.
Use Fulfilled when the recorded pIC50 is no lower than 4; use Not fulfilled when it is lower.

• Cc1nnc(C(O)=C2SC(=S)NC2=O)o1 [Compound I-40] = Fulfilled
• O=C1NC(=S)SC1=C(O)c1ncccn1 [Compound I-35] = Not fulfilled
• Cc1cnc(/C(O)=C2\SC(=S)NC2=O)o1 [Compound I-1] = Fulfilled
• O=C1NC(=S)SC1=C(O)c1cnccn1 [Compound I-36] = Not fulfilled
• Cc1ccc(C(O)=C2SC(=S)NC2=O)o1 [Compound I-22] = Not fulfilled
• O=C1NC(=S)SC1=C(O)c1nn[nH]n1 [Compound I-32] = Not fulfilled
• Cc1cnoc1C(O)=C1SC(=S)NC1=O [Compound I-27] = Fulfilled
• O=C1NC(=S)SC1=C(O)c1ccccn1 [Compound I-37] = Not fulfilled
• O=C1NC(=S)SC1=C(O)c1ccno1 [Compound I-30] = Not fulfilled
• O=C1NC(=S)SC1=C(O)c1nc[nH]n1 [Compound I-34] = Fulfilled

====

Target: UniProt P27958
Test: Inhibitory activity against HCV RNA-dependent RNA polymerase (Experiment Example 1)
Format: biochemical, hepatitis C virus (HCV)
Conditions: Experimental example 1; poly(A) template, oligo(U)12 primer, 3H-UTP substrate, enzyme reaction 25° C. for 30 min; read-out: IC50 for HCV RdRp (converted)
Each record is given MET if its reported IC50 is strictly below 8 µM. Records at or above 8 µM are given NOT MET.

- O=C1NC(=S)SC1=C(O)c1nc[nH]n1: MET
- O=C1NC(=S)SC1=C(O)c1nn[nH]n1: NOT MET
- O=C1NC(=S)SC1=C(O)c1ccccn1: NOT MET
- Cc1cnoc1C(O)=C1SC(=S)NC1=O: MET

====

Biological target: HCV RNA-dependent RNA polymerase (UniProt P27958)
Assay: Inhibitory activity against HCV RNA-dependent RNA polymerase (Experiment Example 1)
Type: biochemical, hepatitis C virus (HCV)
Conditions: read-out: IC50 for HCV RdRp; Experimental example 1; poly(A) template, oligo(U)12 primer, 3H-UTP substrate, enzyme reaction 25° C. for 30 min
pIC50: −log10 of the molar value.
Metric: pIC50

* Cc1cnc(/C(O)=C2\SC(=S)NC2=O)o1 | 5.99

====

# melting point listing for each entry below
Metric: melting point

• Cc1cnc(/C(O)=C2\SC(=S)NC2=O)o1 = 243 to 245 °C (dec.)
• Cc1nnc(C(O)=C2SC(=S)NC2=O)o1 = 230 to 237 °C (dec.)
• O=C1NC(=S)SC1=C(O)c1ccno1 = 195 to 202 °C (dec.)
• O=C1NC(=S)SC1=C(O)c1cnccn1 = > 250 °C (dec.)
• Cc1ccc(C(O)=C2SC(=S)NC2=O)o1 = 195 to 198 °C (dec.)
• O=C1NC(=S)SC1=C(O)c1nn[nH]n1 = 188 to 193 °C (dec.)
• O=C1NC(=S)SC1=C(O)c1ccccn1 = > 250 °C (dec.)
• Cc1cnoc1C(O)=C1SC(=S)NC1=O = 230 to 234 °C (dec.)
• O=C1NC(=S)S/C1=C(/O)c1ccco1 = 230 to 235 °C (dec.)
• O=C1NC(=S)SC1=C(O)c1ncccn1 = > 250 °C (dec.)
• O=C1NC(=S)SC1=C(O)c1nc[nH]n1 = 285 to 290 °C (dec.)
• O=C1NC(=S)SC1=C(O)c1ccon1 = 210 to 215 °C (dec.)
